# Tested on: Phytophthora infestans
# Procedure text: whole plant or invertebrate
# Assay type: in vivo
# Particulars: in Solanum lycopersicum, foliar, read-out: control of Phytophthora infestans (percent disease control compared to untreated)
Would you kindly list pest or weed control at 200 ppm for each of these molecules?

Answered examples (3):
- Molecular string: "COC(=O)Nc1ccc(-c2cnc3ccc(N(CCC#N)C(=O)c4ccc(F)c(OC)c4)cn23)cn1"
  pest or weed control at 200 ppm: "≥ 80%"
- Molecular string: "COC(=O)Nc1ccc(-c2cnc3c(NC(C)=O)cc(N(C)C(=O)c4ccc(F)c(OC)c4)cn23)cn1"
  pest or weed control at 200 ppm: "≥ 80%"
- Molecular string: "C=CCCc1cc(N(C)C(=O)c2ccc(F)c(OC)c2)cn2c(-c3ccc(NC(=O)OC)nc3)cnc12"
  pest or weed control at 200 ppm: "≥ 80%"

Hey, quick one: what's pest or weed control at 200 ppm for each of these?
1. COC(=O)Nc1ccc(-c2cnc3c(C)cc(N(C)C(=O)c4cccnc4SC)cn23)cn1
2. COC(=O)Nc1ccc(-c2cnc3c(C)cc(N(C)C(=O)c4ccc(F)c(OC)c4)cn23)cn1
3. COC(=O)Nc1ccc(-c2cnc3c(C)cc(N(C)C(=O)c4ccc(Cl)c(OC)c4)cn23)cn1
4. COC(=O)Nc1ccc(-c2cnc3c(C)cc(N(C)C(=O)c4ccc(C#N)nc4)cn23)cn1
5. COCN(C(=O)c1ccc(F)cc1)c1ccc2ncc(-c3ccc(NC(=O)OC)nc3)n2c1

Out:
1. ≥ 80%
2. ≥ 80%
3. ≥ 80%
4. ≥ 80%
5. ≥ 80%

Source: patent US20260258038A1
